# measurementNotes: solvent given as SMILES
# testSettings: in ClC(Cl)(Cl)Cl
// bucketize absorption maximum: lowest = under 400 nm, middle = from 400 nm up to 500 nm, highest = 500 nm and over

[[record]]
compound = "CCOC(=O)C1=C(C)NC2=C(C(=O)c3ccccc32)C1c1ccc(N(C)C)cc1 (stereo not given)"
assignedclass = "lowest"


Below: the item to evaluate.
Task item: Exercise: read the entry Cc1ccc(N(c2ccc(C)cc2)c2ccc(-c3ccc4c(c3)C(=O)c3ccccc3C4=O)cc2)cc1 and state which class it falls under.
Reply: middle

* * *

Each record here notes measured absorption maximum.
# measurementNotes: solvent given as SMILES
# testSettings: in Cc1ccccc1
Provide the reading as a plain figure in nm.

Solved cases below.
[[record]]
compound = "N#Cc1cc2nc3c(nc2cc1C#N)C1c2ccc(N(c4ccccc4)c4ccccc4)cc2C3c2ccc(N(c3ccccc3)c3ccccc3)cc21"
units = "nm"
recordedresult = 420

[[record]]
compound = "Cc1ccc(C(=O)/C=C/c2ccc(N(C)C)cc2)cc1"
units = "nm"
recordedresult = 404

[[record]]
compound = "c1ccc(-c2nc(-c3ccccc3)nc(-c3ccc(N4c5ccccc5C5(c6ccccc64)c4ccccc4C4(c6ccccc6Sc6ccccc64)c4ccccc45)cc3)n2)cc1"
units = "nm"
recordedresult = 394.63


Please examine the following record next.
Task item: absorption maximum for COC(=O)C(Cc1ccc2oc(-c3ccc(-n4c5ccccc5c5ccccc54)cc3)nc2c1)NC(=O)OC(C)(C)C (centres undefined) ?
Reply: 342.61
